Reported IC50 is given for each of the following compounds.
Biological target: AXL (Homo sapiens (Human), UniProt P30530)
Sequence (P30530 26-894): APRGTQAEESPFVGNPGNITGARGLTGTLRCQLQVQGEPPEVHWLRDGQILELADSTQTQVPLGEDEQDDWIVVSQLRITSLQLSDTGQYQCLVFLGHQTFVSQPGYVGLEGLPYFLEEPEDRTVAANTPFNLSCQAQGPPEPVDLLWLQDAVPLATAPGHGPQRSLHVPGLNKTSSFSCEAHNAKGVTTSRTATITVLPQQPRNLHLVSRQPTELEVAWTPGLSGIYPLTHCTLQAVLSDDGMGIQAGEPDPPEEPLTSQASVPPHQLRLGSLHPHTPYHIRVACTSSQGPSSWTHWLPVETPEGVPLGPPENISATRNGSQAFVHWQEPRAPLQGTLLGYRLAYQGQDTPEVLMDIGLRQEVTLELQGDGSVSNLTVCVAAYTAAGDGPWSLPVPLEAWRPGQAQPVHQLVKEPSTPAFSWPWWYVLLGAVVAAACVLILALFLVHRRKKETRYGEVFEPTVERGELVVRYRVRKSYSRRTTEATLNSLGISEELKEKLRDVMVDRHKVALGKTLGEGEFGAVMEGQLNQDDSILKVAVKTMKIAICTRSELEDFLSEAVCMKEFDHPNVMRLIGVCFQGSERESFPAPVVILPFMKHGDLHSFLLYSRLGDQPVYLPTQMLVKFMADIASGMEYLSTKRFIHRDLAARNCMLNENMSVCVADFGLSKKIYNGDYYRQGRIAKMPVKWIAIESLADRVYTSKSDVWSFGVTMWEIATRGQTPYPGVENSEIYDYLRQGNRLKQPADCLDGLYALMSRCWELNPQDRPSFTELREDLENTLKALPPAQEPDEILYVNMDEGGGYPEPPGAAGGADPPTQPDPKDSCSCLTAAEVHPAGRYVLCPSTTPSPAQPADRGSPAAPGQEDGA
Assay: AXL autophosphorylation ELISA in A-172 cells
Type: cell-based
Settings: cellular, Gas6-stimulated, phospho-AXL ELISA

{"columns": ["smiles.str", "tested.system", "IC50"],
 "data": [
  ["COc1cc2nccc(Oc3ncc(NC(=O)C4(C(=O)Nc5ccc(F)cc5)CC4)cc3Cl)c2nc1OC", "AXL (Homo sapiens (Human), UniProt P30530)", "100 to 300 nM"],
  ["CNC(=O)c1cc2c(Oc3ccc(NC(=O)C4(C(=O)Nc5ccc(F)cc5)CC4)cn3)ccnc2cc1OC", "AXL (Homo sapiens (Human), UniProt P30530)", "10 to 100 nM"],
  ["COC(=O)c1cc2c(Oc3ncc(NC(=O)C4(C(=O)Nc5ccc(F)cc5)CC4)cc3Cl)ccnc2cc1OC", "AXL (Homo sapiens (Human), UniProt P30530)", "10 to 100 nM"],
  ["O=C(Nc1ccc(F)cc1)C1(C(=O)Nc2cnc(Oc3ccnc4cc5c(nc34)OCCO5)c(Cl)c2)CC1", "AXL (Homo sapiens (Human), UniProt P30530)", "> 300 nM"],
  ["NC(=O)c1cc2c(Oc3ncc(NC(=O)C4(C(=O)Nc5ccc(F)cc5)CC4)cc3F)ccnc2cc1OCCO", "AXL (Homo sapiens (Human), UniProt P30530)", "10 to 100 nM"],
  ["COc1cc2nccc(Oc3ncc(NC(=O)C4(C(=O)Nc5ccc(F)cc5)CC4)cc3Cl)c2cc1-c1nnco1", "AXL (Homo sapiens (Human), UniProt P30530)", "10 to 100 nM"],
  ["CCc1noc(-c2cc3c(Oc4ncc(NC(=O)C5(C(=O)Nc6ccc(F)cc6)CC5)cc4F)ccnc3cc2OC)n1", "AXL (Homo sapiens (Human), UniProt P30530)", "> 300 nM"]
]}

====

Reported IC50 is given for each of the following compounds.
Molecular target: Mer (Homo sapiens (Human))
Sequence (Q12866 21-999): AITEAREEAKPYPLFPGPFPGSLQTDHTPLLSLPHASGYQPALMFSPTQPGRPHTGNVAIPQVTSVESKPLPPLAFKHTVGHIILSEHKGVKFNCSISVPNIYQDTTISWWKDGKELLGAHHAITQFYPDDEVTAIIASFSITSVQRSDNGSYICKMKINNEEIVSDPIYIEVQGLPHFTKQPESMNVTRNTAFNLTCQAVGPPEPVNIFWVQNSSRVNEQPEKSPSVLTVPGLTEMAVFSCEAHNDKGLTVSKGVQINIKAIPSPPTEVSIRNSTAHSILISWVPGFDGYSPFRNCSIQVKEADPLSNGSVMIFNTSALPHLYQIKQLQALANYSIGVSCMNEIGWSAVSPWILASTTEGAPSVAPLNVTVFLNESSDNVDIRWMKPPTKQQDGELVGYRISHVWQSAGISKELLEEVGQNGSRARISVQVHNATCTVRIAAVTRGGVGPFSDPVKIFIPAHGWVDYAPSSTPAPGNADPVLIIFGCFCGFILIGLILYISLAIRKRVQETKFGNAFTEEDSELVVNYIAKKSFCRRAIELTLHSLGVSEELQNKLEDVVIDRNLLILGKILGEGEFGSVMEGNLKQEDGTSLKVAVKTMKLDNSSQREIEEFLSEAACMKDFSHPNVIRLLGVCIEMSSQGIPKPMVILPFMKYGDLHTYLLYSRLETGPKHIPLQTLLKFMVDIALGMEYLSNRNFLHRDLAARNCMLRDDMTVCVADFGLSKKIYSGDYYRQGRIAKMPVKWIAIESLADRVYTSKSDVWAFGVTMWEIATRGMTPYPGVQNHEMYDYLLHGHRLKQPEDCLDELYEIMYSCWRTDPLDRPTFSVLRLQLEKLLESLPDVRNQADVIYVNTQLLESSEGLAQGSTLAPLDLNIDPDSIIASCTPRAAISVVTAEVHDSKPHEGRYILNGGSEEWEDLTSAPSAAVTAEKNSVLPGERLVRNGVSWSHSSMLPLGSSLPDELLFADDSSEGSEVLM
Assay: Mer autophosphorylation ELISA in transient transfected 293A cells
Format: cell-based
Details: cellular, MERTK-transfected 293A cells, phospho-Mer ELISA

{"columns": ["compound", "IC50"],
 "data": [
  ["CCNC(=O)c1cc2c(Oc3ncc(NC(=O)C4(C(=O)Nc5ccc(F)cc5)CC4)cc3Cl)ccnc2cc1OC [Compound 20]", "10 to 100 nM"],
  ["COc1ccc(COc2cc3nccc(Oc4ncc(NC(=O)C5(C(=O)Nc6ccc(F)cc6)CC5)cc4F)c3nc2OC)cc1 [Compound 120]", "> 300 nM"],
  ["COc1cc2nccc(Oc3ncc(NC(=O)C4(C(=O)Nc5ccc(F)cc5)CC4)cc3F)c2cc1-c1ncc[nH]1 [Compound 72]", "10 to 100 nM"]
]}

====

Molecular target: AXL (Homo sapiens (Human))
Experiment: AXL autophosphorylation ELISA in A-172 cells
Settings: cellular, Gas6-stimulated, phospho-AXL ELISA

{"columns": ["compound", "IC50"],
 "data": [
  ["COc1cc(Oc2ccnc3cc(OC)c(OC)nc23)ncc1NC(=O)C1(C(=O)Nc2ccc(F)cc2)CC1", "100 to 300 nM"],
  ["COc1cc2nccc(Oc3ncc(NC(=O)C4(C(=O)Nc5ccc(F)cc5)CC4)cc3Cl)c2cc1-c1ncco1", "≤ 10 nM"],
  ["CNC(=O)c1cc2c(Oc3ncc(NC(=O)C4(C(=O)Nc5ccc(F)cc5)CC4)cc3Cl)ccnc2cc1OCC(C)O (stereo not drawn)", "10 to 100 nM"],
  ["COc1cc2nccc(Oc3ccc(NC(=O)C4(C(=O)Nc5ccc(F)cc5)CC4)c(OC)n3)c2nc1OC", "10 to 100 nM"],
  ["COc1cc2nccc(Oc3ncc(NC(=O)C4(C(=O)Nc5ccc(F)cc5)CC4)cc3F)c2cc1C(=O)O", "> 300 nM"],
  ["COc1cc2nccc(Oc3ccc(NC(=O)C4(C(=O)Nc5ccc(F)cc5)CC4)c(C(N)=O)n3)c2nc1OC", "> 300 nM"],
  ["COc1cc2nccc(Oc3ncc(NC(=O)C4(C(=O)Nc5ccc(F)cc5)CC4)cc3Cl)c2cc1C(N)=O", "≤ 10 nM"],
  ["COc1nc2c(Oc3ncc(NC(=O)C4(C(=O)Nc5ccc(F)cc5)CC4)cc3F)ccnc2cc1OCC(N)=O", "100 to 300 nM"],
  ["COc1cc2nccc(Oc3cc(C)c(NC(=O)C4(C(=O)Nc5ccc(F)cc5)CC4)cn3)c2nc1OC", "> 300 nM"]
]}

Data credit: patent US11673897B2
